Listing: DC50 of selected molecules
molecular target: Protein cereblon/Maternal embryonic leucine zipper kinase (Homo sapiens, UniProt Q14680+Q96SW2); assay: PROTAC activity at CRBN/MELK in human Ramos cells assessed as induction of MELK degradation by immunoblot analysis; type: cell-based
Sequence (Q14680 whole entry): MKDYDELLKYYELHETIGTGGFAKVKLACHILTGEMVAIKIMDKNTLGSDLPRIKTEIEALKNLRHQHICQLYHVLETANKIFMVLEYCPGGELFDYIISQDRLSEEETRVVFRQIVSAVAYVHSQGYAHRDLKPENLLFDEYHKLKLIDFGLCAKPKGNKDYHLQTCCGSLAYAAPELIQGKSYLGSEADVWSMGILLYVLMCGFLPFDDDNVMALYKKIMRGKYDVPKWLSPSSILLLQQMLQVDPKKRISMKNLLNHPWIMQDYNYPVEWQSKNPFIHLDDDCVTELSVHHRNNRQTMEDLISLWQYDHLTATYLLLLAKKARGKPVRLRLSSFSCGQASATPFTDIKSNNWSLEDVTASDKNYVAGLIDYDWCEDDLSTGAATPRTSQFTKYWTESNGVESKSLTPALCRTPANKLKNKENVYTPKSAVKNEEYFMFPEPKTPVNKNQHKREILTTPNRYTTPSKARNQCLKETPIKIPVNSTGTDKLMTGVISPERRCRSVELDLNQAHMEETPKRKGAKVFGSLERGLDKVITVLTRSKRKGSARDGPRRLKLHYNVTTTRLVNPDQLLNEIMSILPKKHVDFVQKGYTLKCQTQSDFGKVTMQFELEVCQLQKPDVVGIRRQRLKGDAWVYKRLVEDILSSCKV
Sequence (Q96SW2 whole entry): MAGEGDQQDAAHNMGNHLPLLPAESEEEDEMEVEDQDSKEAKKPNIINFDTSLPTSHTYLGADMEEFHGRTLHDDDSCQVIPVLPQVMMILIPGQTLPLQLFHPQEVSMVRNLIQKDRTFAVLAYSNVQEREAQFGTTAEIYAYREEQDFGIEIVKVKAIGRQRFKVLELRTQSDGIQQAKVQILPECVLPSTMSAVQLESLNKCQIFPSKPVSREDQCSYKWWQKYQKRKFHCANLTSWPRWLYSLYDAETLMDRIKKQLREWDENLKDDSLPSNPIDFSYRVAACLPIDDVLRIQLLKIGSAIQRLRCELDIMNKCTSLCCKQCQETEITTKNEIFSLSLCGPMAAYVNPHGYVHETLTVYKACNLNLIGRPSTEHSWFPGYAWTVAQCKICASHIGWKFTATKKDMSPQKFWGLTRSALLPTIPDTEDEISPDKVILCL

• CC(C)COc1cnccc1-c1cnn(-c2ccc(N3CCN(Cc4cn(CCCCCCCNc5ccc6c(c5)C(=O)N(C5CCC(=O)NC5=O)C6=O)nn4)CC3)cc2)c1 (stereo not given) = < 5 µM
• CC(C)COc1cnccc1-c1cnn(-c2ccc(N3CCN(Cc4cn(CCOCCOCCOCCOCCNc5ccc6c(c5)C(=O)N(C5CCC(=O)NC5=O)C6=O)nn4)CC3)cc2)c1 (stereo not given) = < 5 µM
• CC(C)COc1cnccc1-c1cnn(-c2ccc(N3CCN(Cc4cn(CCOCCOCCOCCNc5ccc6c(c5)C(=O)N(C5CCC(=O)NC5=O)C6=O)nn4)CC3)cc2)c1 (stereo not given) = < 5 µM
• CC(C)COc1cnccc1-c1cnn(-c2ccc(N3CCN(Cc4cn(CCOCCNc5ccc6c(c5)C(=O)N(C5CCC(=O)NC5=O)C6=O)nn4)CC3)cc2)c1 (stereo not given) = < 5 µM

Note to self: DC50 recorded for CC(C)COc1cnccc1-c1cnn(-c2ccc(N3CCN(Cc4cn(CCOCCOCCNc5ccc6c(c5)C(=O)N(C5CCC(=O)NC5=O)C6=O)nn4)CC3)cc2)c1 (stereo not given) was 2.1 µM

These entries and their values trace back to ChEMBL document CHEMBL5550192.
